All values here come from patent US20250276066A1.

- Test system: C. elegans
- PROCEDURE DETAILS: C. elegans lifespan screening (survival) assay
- Type: in vivo, Caenorhabditis elegans
- PARTICULARS: mean lifespan; dose uM: Panobinostat 1, Entinostat 10, Topotecan 5, PI-103 10, PHA-793887 10, Triptolide 10, KU-0063794 10, Trichostatin A 2; control 22.2 d
Below is a list of entries, each paired with its recorded Mean LS* value.

CC(C)CC(=O)Nc1[nH]nc2c1CN(C(=O)C1CCN(C)CC1)C2(C)C [Compound 5, PHA-793887] : 23.7 days
COc1ccc(-c2ccc3c(N4CCOCC4)nc(N4C[C@@H](C)O[C@@H](C)C4)nc3n2)cc1CO [Compound 7, KU-0063794] : 24.5 days
Cc1[nH]c2ccccc2c1CCNCc1ccc(/C=C/C(=O)NO)cc1 [Compound 1, Panobinostat] : 24 days

Requested read-out: Mean LS*. Entry: Oc1cccc(-c2nc(N3CCOCC3)c3oc4ncccc4c3n2)c1 [Compound 4, PI-103] 24.1 days

====

- Tested on: C. elegans
- PROCEDURE DETAILS: C. elegans lifespan screening (survival) assay
- Assay type: in vivo, Caenorhabditis elegans
- PARTICULARS: mean lifespan; dose uM: Panobinostat 1, Entinostat 10, Topotecan 5, PI-103 10, PHA-793887 10, Triptolide 10, KU-0063794 10, Trichostatin A 2; control 22.2 d
METRIC NAME: Mean LS* (days)
Give just the number in days; leave the unit off.

Field request: Mean LS* | item: CC[C@@]1(O)C(=O)OCc2c1cc1n(c2=O)Cc2cc3c(CN(C)C)c(O)ccc3nc2-1 24.3

# Mean LS* lookup, item Nc1ccccc1NC(=O)c1ccc(CNC(=O)OCc2cccnc2)cc1 24.1

// returns reported Mean LS* for input CC(/C=C/C(=O)NO)=C\[C@@H](C)C(=O)c1ccc(N(C)C)cc1 24.4

Endpoint output: Mean LS* of CC(C)[C@]12O[C@H]1[C@@H]1O[C@]13[C@]1(O[C@H]1C[C@H]1C4=C(CC[C@@]13C)C(=O)OC4)[C@@H]2O [Compound 6, Triptolide] . Value? 24.4

====

- Tested on: C. elegans
- PROCEDURE DETAILS: C. elegans lifespan screening (survival) assay
- Assay type: in vivo, Caenorhabditis elegans
- PARTICULARS: mean lifespan extension vs control; doses (uM)
METRIC NAME: Mean LS ext., % (%)
Just the number in %, nothing appended.

Sample CC(/C=C/C(=O)NO)=C\[C@@H](C)C(=O)c1ccc(N(C)C)cc1 — what was its Mean LS ext., %? 10

Looking for the measured Mean LS ext., % of COc1ccc(-c2ccc3c(N4CCOCC4)nc(N4C[C@@H](C)O[C@@H](C)C4)nc3n2)cc1CO , can you help? 10.6

Which value of Mean LS ext., % has been reported for CC[C@@]1(O)C(=O)OCc2c1cc1n(c2=O)Cc2cc3c(CN(C)C)c(O)ccc3nc2-1 in the records? 9.7

I would be grateful if you could share the reported Mean LS ext., % for Nc1ccccc1NC(=O)c1ccc(CNC(=O)OCc2cccnc2)cc1 . 8.6

====

- System: C. elegans
- PROCEDURE DETAILS: C. elegans lifespan screening (survival) assay
- Assay type: in vivo, Caenorhabditis elegans
- PARTICULARS: mean lifespan extension vs control; doses (uM)
Measured Mean LS ext., % accompanies every entry in the list below.
# unit: % | format: bare number

Illustrative cases are given below, each with its answer.
CC(C)CC(=O)Nc1[nH]nc2c1CN(C(=O)C1CCN(C)CC1)C2(C)C : 6.9
Cc1[nH]c2ccccc2c1CCNCc1ccc(/C=C/C(=O)NO)cc1 : 8.1
Oc1cccc(-c2nc(N3CCOCC3)c3oc4ncccc4c3n2)c1 : 8.6

The record that follows has no Mean LS ext., % shown yet.
I would be grateful if you could share the reported Mean LS ext., % for CC(C)[C@]12O[C@H]1[C@@H]1O[C@]13[C@]1(O[C@H]1C[C@H]1C4=C(CC[C@@]13C)C(=O)OC4)[C@@H]2O [Compound 6, Triptolide] . 10
